Source listed as ChEMBL document CHEMBL1145388.

test: physchem; settings: octanol/water, pH 7.4
Mark -1 for logD values under 1, and 1 for everything at or above.

Entry `COCCNC(=O)c1cccc(Cn2[nH]c(=O)c3[nH]c4cc(Cl)ccc4c(=O)c3c2=O)c1` : is its logD no less than 1?
1

Entry CCC(c1ccncc1)n1[nH]c(=O)c2[nH]c3cc(Cl)ccc3c(=O)c2c1=O (racemic) : is its logD no less than 1?
-1

Entry CC(C#Cc1ccsc1)n1[nH]c(=O)c2[nH]c3cc(Cl)ccc3c(=O)c2c1=O (configuration not stated) : is its logD no less than 1?
1

Entry `Cc1ccc(Cn2nc(O)c3[nH]c4cc(Cl)ccc4c(=O)c3c2=O)o1` : is its logD no less than 1?
-1

====

// values below are reported bioavailability at 24 h
experiment: in vivo; details: Sprague-Dawley, rat, po, 10 mg/kg
Field format: number, assumed %, no unit text.

Look up bioavailability at 24 h: `O=c1[nH]n(Cc2ccno2)c(=O)c2c(=O)c3ccc(Cl)cc3[nH]c12`
40

====

assay: physchem; settings: octanol/water, pH 7.4
Property Label: logD

// solved cases for logD follow
Molecule: Cc1cc(Cn2[nH]c(=O)c3[nH]c4cc(Cl)ccc4c(=O)c3c2=O)oc1C
logD: 1
//
Molecule: COC(=O)c1ccc(C(C)n2[nH]c(=O)c3[nH]c4cc(Cl)ccc4c(=O)c3c2=O)cc1 (stereo not given)
logD: 1.3
//
Molecule: O=c1[nH]n(Cc2ccno2)c(=O)c2c(=O)c3ccc(Cl)cc3[nH]c12
logD: < 0.5
//
Molecule: CS(=O)(=O)O.O=c1c2ccc(Cl)cc2[nH]c2c(O)nn(Cc3ccncc3)c(=O)c12
logD: < 0.3

Look up logD: `CS(=O)(=O)O.O=c1c2ccc(Cl)cc2[nH]c2c(O)nn(Cc3cnccn3)c(=O)c12`
< 0.5

====

// values below are reported logD
experiment: physchem; details: octanol/water, pH 7.4
Write the value as a bare number.

// solved cases for logD follow
Compound: CC(c1cc2ccccc2o1)n1[nH]c(=O)c2[nH]c3cc(Cl)ccc3c(=O)c2c1=O (stereo not drawn)
logD: 2
//
Compound: O=c1c2ccc(Cl)cc2[nH]c2c(O)nn(Cc3cc4ccccc4o3)c(=O)c12
logD: 2.1
//
Compound: O=c1c2ccc(Cl)cc2[nH]c2c(O)nn(Cc3ccsc3)c(=O)c12
logD: 1.2
//
Compound: Cc1ccsc1Cn1[nH]c(=O)c2[nH]c3cc(Cl)ccc3c(=O)c2c1=O
logD: 1.4
//
Compound: COC(=O)c1ccc(Cn2nc(O)c3[nH]c4cc(Cl)ccc4c(=O)c3c2=O)cc1
logD: 1.17

Look up logD: CC(C#Cc1ccccc1)n1[nH]c(=O)c2[nH]c3cc(Cl)ccc3c(=O)c2c1=O (stereo not drawn)
1.4

Look up logD: `CN(C)C(=O)Nc1ccc(Cn2[nH]c(=O)c3[nH]c4cc(Cl)ccc4c(=O)c3c2=O)cc1`
1.1

Look up logD: CC(C#Cc1cccs1)n1[nH]c(=O)c2[nH]c3cc(Cl)ccc3c(=O)c2c1=O (stereo not drawn)
2.4

Look up logD: CC(c1ccsc1)n1[nH]c(=O)c2[nH]c3cc(Cl)ccc3c(=O)c2c1=O (stereo not drawn)
0.9

====

// values below are reported bioavailability at 24 h
assay: in vivo; details: Sprague-Dawley, rat, po, 10 mg/kg
Field format: number, assumed %, no unit text.

// solved cases for bioavailability at 24 h follow
Compound: Cc1ccsc1Cn1[nH]c(=O)c2[nH]c3cc(Cl)ccc3c(=O)c2c1=O
Quantitative Result: 28
--
Compound: O=c1c2ccc(Cl)cc2[nH]c2c(O)nn(Cc3ccsc3)c(=O)c12
Quantitative Result: 1.2

Here's the next entry for you.
Look up bioavailability at 24 h: `COC(=O)c1ccc(Cn2nc(O)c3[nH]c4cc(Cl)ccc4c(=O)c3c2=O)cc1`
7
